Provenance of the data: patent US12551482B2

# System: BB30-HNC
# test_method_notes: Cancer cell line profiling, Genomics of Drug Sensitivity Project
# study_conditions: read-out: CD532 EC50 (uM)
assay_readout: EC50
Answer as a quantity: numeral, then unit.

Exercise: Determine reported EC50 for `O=C(Nc1ccc(Nc2nccc(Nc3cc(C4CCCC4)[nH]n3)n2)cc1)Nc1cccc(C(F)(F)F)c1` ; test system: BB30-HNC.
Key: 0.462 µM

* * *

# Test system: OVKATE
# test_method_notes: Cancer cell line profiling, Genomics of Drug Sensitivity Project
# study_conditions: read-out: CD532 EC50 (uM)
assay_readout: EC50
Answer as a quantity: numeral, then unit.

Exercise: Answer with the recorded EC50 of `O=C(Nc1ccc(Nc2nccc(Nc3cc(C4CCCC4)[nH]n3)n2)cc1)Nc1cccc(C(F)(F)F)c1` only.
Key: 6 µM
